Design: species or system humans
Settings: adult females, 58 kg body weight
RECORDED_ENDPOINT: ALfemale (allowable limit)

Consider the reported ALfemale (allowable limit) for these molecules:
CC(=O)c1ccccc1 [Acetophenone]; 9,810 μg/day
CC(C)(O)c1ccccc1 [Cumyl alcohol]; 1,800 μg/day
C=C(CC(C)(C)c1ccccc1)c1ccccc1 [2,4-Diphenyl-4-methyl-1-pentene]; 232 µg/day

Now take the following molecule into account.
Req: Recorded ALfemale (allowable limit) for CC(C)(OOC(C)(C)c1ccccc1)c1ccccc1 [Dicumyl peroxide] , please?
Resp: 1,860 μg/day

====

Design: species or system humans
Conditions: adult males, 70 kg body weight
Hi there, I'd appreciate the recorded ALmale (allowable limit) for every entry that follows.

CC(=O)c1ccccc1; 11,800 μg/day
C=C(CC(C)(C)c1ccccc1)c1ccccc1; 280 µg/day
CC(C)(O)c1ccccc1; 1,800 μg/day

Now take the following molecule into account.
Req: Recorded ALmale (allowable limit) for CC(C)(OOC(C)(C)c1ccccc1)c1ccccc1 [Dicumyl peroxide] , please?
Resp: 2,240 μg/day
